Value source: PubChem BioAssay (NCI)

System: OVCAR-3 ovarian
Experiment: NCI tumour cell line growth inhibition, 48 h
Recorded GI50 by entry

Solved entries:
{"compound": "COC1=CC(c2ccc[nH]2)=N/C1=C\\c1[nH]c(C)c(C(=O)CCC(=O)Oc2ccc3c(c2)CCC2C3CC[C@]3(C)C(=O)CC[C@@H]23)c1C (some centres undefined)", "GI50": "17.5 µM"}
{"compound": "OCC(O)CC[CH2][Sn]([c]1ccccc1)([c]1ccccc1)[c]1ccccc1 (centres undefined)", "GI50": "16.2 µM"}

Return reported GI50; argument: `COc1ccc(/C=C2/CN(C(=O)c3ccccc3F)C/C(=C\c3ccc(OC)cc3)C2=O)cc1`
2.3 µM

Return reported GI50; argument: `CS(=O)(=O)c1nccc(-c2c(-c3cccc(OCc4ccc(F)cc4)c3)nc3sccn23)n1`
19 µM

----------
Test system: NCI/ADR-RES ovarian
Assay: NCI tumour cell line growth inhibition, 48 h
Recorded TGI by entry

Solved entries:
{"compound": "CN1CC(c2ccccc2)=Cc2c1ccc(N)c2N=N", "TGI": "> 100 µM"}
{"compound": "O=C(C=P(c1ccccc1)(c1ccccc1)c1ccccc1)C12CC3CC(CC(C3)C1)C2", "TGI": "37.6 µM"}
{"compound": "O=S(=O)(c1cccc(C(F)(F)F)c1)N1c2ccccc2-n2cccc2C1c1cccnc1 (stereo unspecified)", "TGI": "66.2 µM"}
{"compound": "Nc1c(Br)cc(-c2cc(Br)c(N)c(Br)c2)cc1Br", "TGI": "> 100 µM"}
{"compound": "CC(C)C1CN1CC(O)Cn1ccnc1[N+](=O)[O-] (stereo unspecified)", "TGI": "> 100 µM"}

Return reported TGI; argument: `Cc1c2c(n3c(nc4ccccc43)c1C#N)N(c1ccc(Cl)cc1)CC2`
> 100 µM

Return reported TGI; argument: `c1ccc2c(c1)O[As](O[As]1Oc3ccccc3O1)O2`
> 100 µM

Return reported TGI; argument: COC(=O)C(=O)C(C(=O)C(=O)Nc1ccccc1C(=O)OC)c1nc2ccc(C(=O)c3ccccc3)cc2[nH]c1=O (stereo unspecified)
> 100 µM

Return reported TGI; argument: COc1ccc2c(c1)Oc1nc(N)c(C#N)c(N)c1C2Sc1ccc(SC)cc1 (stereo unspecified)
6.05 µM

Return reported TGI; argument: `CCOC(=O)c1cc2cc(Cc3ccc4[nH]c(C(=O)OCC)cc4c3)ccc2[nH]1`
52.6 µM

Return reported TGI; argument: `Cc1cc(Br)c(N2C3=C(CC4=C2CCCC4=O)C(=O)CCC3)c(Br)c1`
> 100 µM

----------
Recorded TGI by entry
System: SNB-75 CNS
Assay: NCI tumour cell line growth inhibition, 48 h

{"compound": "CCOC(=O)c1cc2cc(Cc3ccc4[nH]c(C(=O)OCC)cc4c3)ccc2[nH]1", "quantity-kind": "TGI", "result": "27.9 µM"}

Return reported TGI; argument: COC1/C=C\C=C(/C)C(=O)NC2=CC(=O)C(NCCCl)=C(CC(C)CC(OC)C(O)C(C)/C=C(/C)C1OC(N)=O)C2=O (stereo not given)
3.81 µM

Return reported TGI; argument: `N/C(CC/C(N)=N\O)=N\O`
> 100 µM

Return reported TGI; argument: `c1ccc2[nH]c(-c3nc4ccccc4o3)nc2c1`
> 100 µM

Return reported TGI; argument: `C=C1C(=O)O[C@@H]2C[C@]3(C)[C@@H](C[C@H]12)[C@](C)(O)CC[C@@H]3O`
> 100 µM

Return reported TGI; argument: `COc1ccc(NC(=S)NN=C(C)c2cccc(C(C)=NNC(=S)Nc3ccc(OC)cc3)n2)cc1`
> 100 µM

Return reported TGI; argument: `CN(C)[C@@H]1C(=O)C(C(N)=O)=C(O)[C@@]2(O)C(=O)C3=C(O)c4c(O)cccc4C[C@H]3C[C@@H]12`
2.98 µM

Return reported TGI; argument: `Cc1ncc([N+](=O)[O-])n1CCN(C)CCCCn1ccnc1[N+](=O)[O-]`
> 100 µM

Return reported TGI; argument: C=CC1CC12C(=O)C1OC2(C)C2C(=O)c3ccccc3C(=O)C12 (stereo not given)
> 76.1 µM

Return reported TGI; argument: `N#Cc1[nH]c(=O)n(-c2ccc([N+](=O)[O-])cc2)c1N`
> 10 µM
